Biological target: human TLR8 (Homo sapiens)
Test: TLR8 inhibition reporter assay (HEK-Blue cells, SEAP reporter)
Conditions: HEK-Blue cells overexpressing human TLR8, stimulated with R848 15.9 μM, 22 hour incubation
QUANTITY_NAME: IC50 (µM)

(A) Cc1nc(-c2ccc(N3CC4CCC(C3)N4CCCO)cc2)cc2c1cc(-c1ccc(S(C)(=O)=O)cc1)n2C
(B) Cc1nc(-c2cc(F)c(N3CCN4CCCC4C3)cc2F)cc2c1cc(-c1ccc(S(C)(=O)=O)cc1)n2C (stereo not shown)
(C) Cc1nc(-c2cc(F)c(C3(O)CCN(CC(C)C)CC3)cc2F)cc2c1cc(-c1ccc(S(C)(=O)=O)cc1)n2C
Let's sort these by IC50, smallest first. Go ahead? As an answer, provide the labels arranged in the order called for. C, B, A

----------
Biological target: human TLR7 (Homo sapiens, UniProt Q9NYK1)
Sequence (Q9NYK1 27-1049): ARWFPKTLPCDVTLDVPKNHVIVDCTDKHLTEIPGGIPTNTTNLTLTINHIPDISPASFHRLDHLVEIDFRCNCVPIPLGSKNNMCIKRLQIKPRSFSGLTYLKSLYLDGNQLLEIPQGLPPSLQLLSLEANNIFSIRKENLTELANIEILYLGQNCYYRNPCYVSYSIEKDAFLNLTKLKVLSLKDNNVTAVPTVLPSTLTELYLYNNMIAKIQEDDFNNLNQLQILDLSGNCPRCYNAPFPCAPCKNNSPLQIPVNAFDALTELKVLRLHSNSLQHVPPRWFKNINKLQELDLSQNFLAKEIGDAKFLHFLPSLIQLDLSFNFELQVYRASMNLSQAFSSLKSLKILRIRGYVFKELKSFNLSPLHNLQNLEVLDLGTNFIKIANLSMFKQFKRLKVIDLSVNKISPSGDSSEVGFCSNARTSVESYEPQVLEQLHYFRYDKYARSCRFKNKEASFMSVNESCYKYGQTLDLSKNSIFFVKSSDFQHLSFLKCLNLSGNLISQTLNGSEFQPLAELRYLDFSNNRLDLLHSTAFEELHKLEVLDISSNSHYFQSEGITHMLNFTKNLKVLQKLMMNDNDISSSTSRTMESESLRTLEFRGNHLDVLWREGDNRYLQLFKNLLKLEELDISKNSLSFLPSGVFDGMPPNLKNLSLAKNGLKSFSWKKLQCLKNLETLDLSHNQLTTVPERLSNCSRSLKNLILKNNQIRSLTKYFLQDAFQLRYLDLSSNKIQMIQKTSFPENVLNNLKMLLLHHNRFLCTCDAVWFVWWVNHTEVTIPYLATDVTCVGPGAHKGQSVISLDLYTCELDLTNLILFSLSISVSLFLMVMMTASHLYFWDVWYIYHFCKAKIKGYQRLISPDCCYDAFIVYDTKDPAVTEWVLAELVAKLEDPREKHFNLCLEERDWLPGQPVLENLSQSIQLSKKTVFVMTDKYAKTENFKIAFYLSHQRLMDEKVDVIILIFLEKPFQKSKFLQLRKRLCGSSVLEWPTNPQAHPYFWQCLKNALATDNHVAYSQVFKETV
Experiment: TLR7 inhibition reporter assay (HEK-Blue cells, SEAP reporter)
Conditions: HEK-Blue cells overexpressing human TLR7, stimulated with gardiquimod 7.5 μM, 22 hour incubation
QUANTITY_NAME: IC50 (nM)

These recorded examples may help you get a feel for the data.
• COc1ccc(-c2cc3cnc(-c4ccc(N5CCN(C(C)C)CC5)nc4)cc3n2C)cc1OC [Example 31] = 1500
• Cc1nc(-c2ccc(C3(O)CCN(C4CC4)CC3)cc2)cc2c1cc(-c1ccc(S(C)(=O)=O)cc1)n2C [Example 87] = 2200
• COc1ccc(-c2c(C)n(C)c3cnc(-c4ccc(N5CCN(CC(C)(C)O)CC5)cc4)cc23)cc1OC [Example 3] = 3300
• COc1ccc(-c2cc3cnc(C4CCN(C(=O)CN5CCCCC5)CC4)cc3n2C)cc1OC [Example 25] = 4500
• CC(C)N1CCN(c2ccc(-c3cc4c(cc(-c5ccc(S(C)(=O)=O)cc5)n4C)c(C(C)(C)O)n3)cc2)CC1 [Example 118] = 1700

(P) COCCN1CCC(O)(c2ccc(-c3cc4c(cc(-c5ccc(S(C)(=O)=O)cc5)n4C)c(C)n3)cc2F)CC1 [Example 92]
(Q) Cc1nc(-c2ccc(N3CC4CCC(C3)N4CCCO)c(F)c2)cc2c1cc(-c1ccc(S(C)(=O)=O)cc1)n2C [Example 77]
Min IC50? P | Q Write down the label of the entry you select. Q
(Q: 1900 nM, P: 7000 nM)

----------
Biological target: human TLR8 (Homo sapiens, UniProt Q9NR97)
Sequence (Q9NR97 27-1041): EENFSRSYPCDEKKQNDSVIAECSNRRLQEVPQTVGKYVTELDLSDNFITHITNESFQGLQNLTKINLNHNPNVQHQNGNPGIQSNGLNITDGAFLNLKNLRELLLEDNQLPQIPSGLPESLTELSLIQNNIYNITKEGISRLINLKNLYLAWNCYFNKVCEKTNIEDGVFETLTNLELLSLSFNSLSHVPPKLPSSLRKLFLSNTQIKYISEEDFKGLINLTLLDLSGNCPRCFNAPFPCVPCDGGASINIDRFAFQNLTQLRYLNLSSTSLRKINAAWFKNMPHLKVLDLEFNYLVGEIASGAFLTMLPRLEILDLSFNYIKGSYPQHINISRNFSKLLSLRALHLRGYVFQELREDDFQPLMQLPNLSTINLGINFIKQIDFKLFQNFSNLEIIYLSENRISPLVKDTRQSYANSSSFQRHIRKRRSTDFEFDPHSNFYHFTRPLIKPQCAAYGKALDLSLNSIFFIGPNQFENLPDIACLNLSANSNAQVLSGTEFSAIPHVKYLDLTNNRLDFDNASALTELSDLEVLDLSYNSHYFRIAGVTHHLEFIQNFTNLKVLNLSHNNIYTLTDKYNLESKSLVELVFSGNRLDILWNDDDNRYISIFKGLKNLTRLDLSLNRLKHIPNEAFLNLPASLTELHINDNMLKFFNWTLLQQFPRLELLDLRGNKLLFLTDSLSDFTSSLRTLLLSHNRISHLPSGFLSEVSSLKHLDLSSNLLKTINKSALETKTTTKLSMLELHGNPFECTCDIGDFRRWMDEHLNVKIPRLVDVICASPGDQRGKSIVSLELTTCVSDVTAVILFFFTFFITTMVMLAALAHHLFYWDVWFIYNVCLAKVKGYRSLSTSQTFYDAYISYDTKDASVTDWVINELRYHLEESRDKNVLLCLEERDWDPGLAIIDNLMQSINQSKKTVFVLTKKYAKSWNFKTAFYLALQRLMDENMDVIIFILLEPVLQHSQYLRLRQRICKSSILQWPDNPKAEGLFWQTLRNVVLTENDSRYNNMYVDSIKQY
Assay: TLR8 inhibition reporter assay (HEK-Blue cells, SEAP reporter)
Settings: HEK-Blue cells overexpressing human TLR8, stimulated with R848 15.9 μM, 22 hour incubation
pIC50: −log10 of the molar value.
QUANTITY_NAME: pIC50

Solved cases below.
• CCN1C2CCC1CC(O)(c1ccc(-c3cc4c(cc(-c5ccc(S(C)(=O)=O)cc5)n4C)c(C)n3)cc1F)C2 (stereo not shown) = 5.29
• Cc1nc(-c2ccc(CN3CCN(CCC(C)(C)O)CC3)cc2)cc2c1cc(-c1ccc(S(C)(=O)=O)cc1)n2C1CC1 = 4.72
• COc1ccc(-c2cc3cnc(-c4ccc(N5CCN(C(C)C)CC5)nc4)cc3n2C)cc1OC = 5.77
• COCCN1CCC(O)(c2cc(F)c(-c3cc4c(cc(-c5ccc(S(C)(=O)=O)cc5)n4C)c(C)n3)cc2F)CC1 = 5.57

(I) COc1ccc(-c2cc3cnc(C4CCN(Cc5ccc(C)nc5)CC4)cc3n2C)cc1OC
(II) Cc1nc(-c2ccc(CN3CCN(CC(C)C)CC3)cc2)cc2c1cc(-c1ccc(S(C)(=O)=O)cc1)n2C
Lowest pIC50? choose I or II Lab note: record the label of whichever item you select. I
(I: 4.59, II: 5.12)
